Where do the numbers come from? From paper PMC6222487.

- TESTED SYSTEM: UniProtKB O42275
- Sequence (O42275 24-633): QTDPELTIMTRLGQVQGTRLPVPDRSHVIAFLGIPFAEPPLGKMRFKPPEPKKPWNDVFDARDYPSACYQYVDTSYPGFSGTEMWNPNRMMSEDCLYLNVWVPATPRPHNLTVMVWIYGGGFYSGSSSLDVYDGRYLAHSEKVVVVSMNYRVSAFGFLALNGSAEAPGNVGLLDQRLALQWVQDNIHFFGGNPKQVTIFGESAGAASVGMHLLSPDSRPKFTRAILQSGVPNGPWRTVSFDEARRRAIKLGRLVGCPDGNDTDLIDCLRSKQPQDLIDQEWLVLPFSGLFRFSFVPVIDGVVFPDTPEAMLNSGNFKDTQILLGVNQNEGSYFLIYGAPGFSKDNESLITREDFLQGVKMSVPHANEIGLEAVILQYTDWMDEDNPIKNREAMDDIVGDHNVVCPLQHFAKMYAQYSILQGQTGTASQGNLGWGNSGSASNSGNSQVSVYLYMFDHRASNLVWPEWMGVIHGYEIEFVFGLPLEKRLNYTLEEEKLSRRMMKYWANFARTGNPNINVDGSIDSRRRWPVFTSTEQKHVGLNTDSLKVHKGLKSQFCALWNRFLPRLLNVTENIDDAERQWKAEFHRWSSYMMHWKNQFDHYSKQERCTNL
Provide the recorded IC50 for the entries that follow.
Answers are plain numbers, in nM.

>>> experimental_value("COc1cccc(OC)c1C(=O)OCCCOC(=O)c1nc(C)c(C)nc1C")
144
>>> experimental_value("COc1ccc(C(=O)OCCCOC(=O)c2nc(C)c(C)nc2C)c(OC)c1")
388
>>> experimental_value("COc1cc(/C=C/C(=O)OCCCOC(=O)c2nc(C)c(C)nc2C)cc(OC)c1OC")
93.5
>>> experimental_value("COc1cccc(C(=O)OCCCOC(=O)c2nc(C)c(C)nc2C)c1OC")
168
>>> experimental_value("COc1cc(CC(=O)OCCCOC(=O)c2nc(C)c(C)nc2C)cc(OC)c1OC")
303

Value sought for every listed compound: IC50.
1. COc1cc(OC)cc(C(=O)OCCCOC(=O)c2nc(C)c(C)nc2C)c1
2. Cc1nc(C)c(C(=O)OCCCOC(=O)c2cccc(Cl)c2)nc1C
3. Cc1nc(C)c(C(=O)OCCCOC(=O)c2ccccn2)nc1C
4. Cc1nc(C)c(/C=C/C(=O)OCCCOC(=O)c2nc(C)c(C)nc2C)nc1C
5. COc1ccc(C(=O)OCCCOC(=O)c2nc(C)c(C)nc2C)cc1OC
6. COc1ccc(/C=C/C(=O)OCCCOC(=O)c2nc(C)c(C)nc2C)cc1OC

A.
4.43
6.61
0.25
1.39
4.12
3.24
